Below: a set of entries, each annotated with reported NIH3T3_AUC.
- Tested on: NIH-3T3 cells
- measurement_notes: qHTS cell viability (CellTiter-Glo, 72 h; primary screen), control cell line
- Assay type: cell-based, mouse
recorded_metric: NIH3T3_AUC

| compound | study_system | recorded_metric | result |
| --- | --- | --- | --- |
| CC[N+](CC)(CC)CCOc1ccc(/C=C/c2ccccc2)cc1 [Stilonium iodide] | NIH-3T3 cells | NIH3T3_AUC | 427.937 |
| CC(C)(O)/C=C/C(=O)[C@](C)(O)[C@H]1[C@H](O)C[C@@]2(C)[C@@H]3CC=C4[C@@H](C=C(O)C(=O)C4(C)C)[C@]3(C)C(=O)C[C@]12C | NIH-3T3 cells | NIH3T3_AUC | 387.943 |
| CCCN(CCC)CCc1c[nH]c2ccccc12.Cl [N,N-Dipropyltryptamine hydrochloride] | NIH-3T3 cells | NIH3T3_AUC | 481.316 |
| C=CCC1([C@H](C)CCC)C(=O)NC(=O)NC1=O [S-(-)-Secobarbital] | NIH-3T3 cells | NIH3T3_AUC | 473.981 |
| Cl.Oc1ccc2c3c1O[C@H]1[C@@H](O)C=C[C@H]4[C@@H](C2)NCC[C@@]341 [N-Normorphine hydrochloride] | NIH-3T3 cells | NIH3T3_AUC | 490.376 |
| CNC(=O)[C@H](CC1=CN=C2C=CCC=C12)NC(=O)[C@@H](CC(=O)NO)CC(C)C | NIH-3T3 cells | NIH3T3_AUC | 471.496 |
| C[C@H](CN1CCOCC1)C(C(=O)N1CCCC1)(c1ccccc1)c1ccccc1.O=C(O)C(O)C(O)C(=O)O [Dextromoramide tartrate] | NIH-3T3 cells | NIH3T3_AUC | 477.478 |

Where these numbers come from: paper PMC11822212
